- System: LOX IMVI melanoma
- Assay Method Text: NCI-60 one-dose screen, 48 h (100 = growth as untreated, 0 = no growth, -100 = all killed)
- Run Parameters: 10 µM
This is part of a sample that, as a whole, favours compounds with a hit. Of some 83,000 tested, about 20% had one in any assay.
For each entry below, report its growth value.
Give a bare numeral; the unit % is implied.

Enquiry: Endpoint output: growth of CN(C)c1ccnc(NCCCSC(c2ccccc2)(c2ccccc2)c2ccccc2)c1 . Value?
Return: 47.9

Enquiry: Endpoint output: growth of O=C(NN1C(=O)/C(=C/C=C/c2ccc([N+](=O)[O-])o2)SC1=S)c1ccc(Cl)cc1 . Value?
Return: -97.3

Enquiry: Endpoint output: growth of Cc1cccc(Nc2nc3ccccc3nc2/C=C/c2ccc(F)cc2)c1 . Value?
Return: 101

Enquiry: Endpoint output: growth of COc1c(F)ccc(C(=O)Nc2ccc3nc(NC(=O)C4CCCN(S(=O)(=O)c5ccc(C#N)cc5)C4)sc3c2)c1F (configuration not stated) . Value?
Return: 95.4

Enquiry: Endpoint output: growth of COc1ccc(/C=C/c2nc3ccccc3nc2Nc2cccc(C)c2)cc1 . Value?
Return: 108

Enquiry: Endpoint output: growth of CC(=O)c1cccc(NC(=O)CCC(=O)NS(=O)(=O)c2ccc(C)cc2)c1 . Value?
Return: 104

Enquiry: Endpoint output: growth of C=C1CCC2C3(C)COC(c4cccs4)OC3CCC2(C)C1CC(Sc1ccccc1)C1=CCOC1=O (configuration not stated) . Value?
Return: -77.9

====

For each entry below, report its growth value.
- Test system: CAKI-1 renal
- Assay Method Text: NCI-60 one-dose screen, 48 h (100 = growth as untreated, 0 = no growth, -100 = all killed)
- Run Parameters: 10 µM unless noted
The panel holds about 83,000 compounds, 20% with a hit somewhere; the sample as a whole holds those more often. Calls of active or inactive are those of the source. Rule for the calls: active = growth percent below 10; inactive = the rest.

Enquiry: Endpoint output: growth of CN1C(=O)/C(=C/c2ccc(C(=O)Nc3ncc(Cc4ccc(Cl)cc4Cl)s3)cc2)SC1=S . Value?
Return: 30.1% (inactive)

Enquiry: Endpoint output: growth of COCOc1cc2oc(C(=O)N[C@@H](Cc3ccccc3)C(O)C(=O)NCc3ccccc3)c(C)c(=O)c2cc1OCOC (stereo not given in full) . Value?
Return: 84.7% (inactive)

Enquiry: Endpoint output: growth of COc1ccc(-c2c(Nn3cnnn3)no[n+]2[O-])cc1 . Value?
Return: 25.7% (inactive)

Enquiry: Endpoint output: growth of N#Cc1c(-c2cccnc2)cc(-c2ccc3ccccc3c2)[nH]c1=O . Value?
Return: 89.7% (inactive)

Enquiry: Endpoint output: growth of Cc1ccc(S(=O)(=O)c2nc(S(=O)(=O)c3ccc(C)cc3)c(N3CCC(O)CC3)s2)cc1 . Value?
Return: 69.2% (inactive)

====

For each entry below, report its growth value.
- Tested on: M14 melanoma
- Assay Method Text: NCI-60 one-dose screen, 48 h (100 = growth as untreated, 0 = no growth, -100 = all killed)
- Run Parameters: 10 µM unless noted
About 83,000 compounds went through this panel and 20% of them were active in at least one assay; those are over-represented in the sample as a whole.
Give a bare numeral; the unit % is implied.

Enquiry: Endpoint output: growth of COc1cc(OC)cc(C(=O)Nc2cccc(-c3cn(-c4ccc(S(N)(=O)=O)cc4)nn3)c2)c1 . Value?
Return: 91.3

Enquiry: Endpoint output: growth of O=c1[nH]c(=O)c2c(-c3cc4ccccc4oc3=O)ccnc2[nH]1 . Value?
Return: 91.4

Enquiry: Endpoint output: growth of COc1ccc(C2=NN(c3ccccc3)C(c3ccc(OCc4ccccc4)c(OC)c3)C2)cc1OC (stereo not drawn) . Value?
Return: 91.2
